Origin of the recorded values: ChEMBL document CHEMBL5370612

IC50 values for the molecules below.
tested on: K562; assay: Cytotoxicity against human K562 cells by MTT method; format: functional, cell-based
readoutKind: IC50

CC(C)=C(C)CC(=O)O[C@H]1C=COC=C2C[C@@]34SSSS[C@]5(CC6=COC=C[C@H](O)[C@H]6N5C3=O)C(=O)N4[C@@H]21 | 2.3 µM
O=C(Cc1ccccc1)O[C@H]1C=COC=C2C[C@@]34SSSS[C@]5(CC6=COC=C[C@H](O)[C@H]6N5C3=O)C(=O)N4[C@@H]21 | 3.1 µM
CS[C@@]12CC3=COC=C[C@H](O)[C@H]3N1C(=O)[C@]1(SC)CC3=COC=C[C@H](O)[C@H]3N1C2=O | > 30 µM
CC(=O)O[C@H]1C=COC=C2C[C@@]34SS[C@]5(CC6=COC=C[C@H](O)[C@H]6N5C3=O)C(=O)N4[C@@H]21 [ARANOTIN] | 1.4 µM
CS[C@@]12CC3=COC=C[C@H](OC(C)=O)[C@H]3N1C(=O)[C@]1(SC)CC3=COC=C[C@H](OC(=O)CC(C)=C(C)C)[C@H]3N1C2=O | > 30 µM
CS[C@@]12CC3=COC=C[C@H](OC(C)=O)[C@H]3N1C(=O)[C@]1(SC)CC3=COC=C[C@H](OC(C)=O)[C@H]3N1C2=O | > 30 µM
CS[C@@]12CC3=COC=C[C@H](OC(=O)CC(C)=C(C)C)[C@H]3N1C(=O)[C@]1(SC)CC3=COC=C[C@H](O)[C@H]3N1C2=O | > 30 µM
COc1cccc2c1C(=O)c1c(O)c3c(c(O)c1C2=O)C[C@@](O)(C(=O)CO)C[C@@H]3O[C@H]1C[C@H](N)[C@H](O)[C@H](C)O1 [DOXORUBICIN] | < 1 µM
CS[C@@]12CC3=COC=C[C@H](OC(C)=O)[C@H]3N1C(=O)[C@]1(SC)CC3=COC=C[C@H](O)[C@H]3N1C2=O | > 30 µM
